Biological target: T1, AAV2 (adeno-associated virus 2, UniProt P03135 1-735)
T1 construct: also called adeno-associated virus serotype 2
T1 sequence (P03135 whole entry): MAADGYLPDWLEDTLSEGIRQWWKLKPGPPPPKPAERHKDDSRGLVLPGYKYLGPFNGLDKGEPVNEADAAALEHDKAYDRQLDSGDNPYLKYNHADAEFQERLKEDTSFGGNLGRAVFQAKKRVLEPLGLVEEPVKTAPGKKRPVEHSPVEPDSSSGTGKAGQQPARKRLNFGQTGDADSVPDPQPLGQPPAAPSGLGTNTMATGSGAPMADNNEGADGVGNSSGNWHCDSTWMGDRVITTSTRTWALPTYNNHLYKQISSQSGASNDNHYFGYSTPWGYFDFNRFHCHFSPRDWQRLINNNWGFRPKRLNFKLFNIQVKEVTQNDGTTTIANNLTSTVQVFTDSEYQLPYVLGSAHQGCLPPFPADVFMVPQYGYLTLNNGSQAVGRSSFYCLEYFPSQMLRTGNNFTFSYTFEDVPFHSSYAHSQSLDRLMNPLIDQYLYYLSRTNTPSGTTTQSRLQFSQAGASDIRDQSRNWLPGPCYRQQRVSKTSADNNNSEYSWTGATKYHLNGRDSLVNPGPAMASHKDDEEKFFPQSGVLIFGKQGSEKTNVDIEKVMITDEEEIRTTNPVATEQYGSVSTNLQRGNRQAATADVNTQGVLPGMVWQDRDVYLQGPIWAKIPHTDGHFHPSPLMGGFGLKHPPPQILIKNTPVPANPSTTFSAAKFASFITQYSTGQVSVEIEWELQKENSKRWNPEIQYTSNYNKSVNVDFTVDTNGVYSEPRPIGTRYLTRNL
Assay: SPR, AAV amine-coupled to CM5 chip;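 further: nanobodies flowed as analyte at seven concentrations spanning 1–100 nM over immobilized AAV (500–800 RU), kinetic constants derived by fitting the binding curves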
Hi there, I'd appreciate the recorded pKd for every entry that follows.
# pKd: negative log10 of molar concentration; output just the value

Looking up A4-071 (VHH) VHH: VQLQESGGGAVQAGGSLRLSCAASGSTFSINTMGWYRQAPGKQRELVATVTRGGSTNYGDFVKGRFTISRDNAKNTVYLQMNTLRPEDTAVYYCHLDEVRQSSWTTSNLWGQGTQVTVSS , I see its pKd listed as 7.03

Looking up A4-099 (VHH) VHH: VQLQESGGGLVQTGGSLRLSCAASGSSFSINTMGWYRQAPGKWRELVAAVTRGGDTNYAESVKGRFTISRDNGKNTVYLQMNSLRPEDTAVYYCHIDEIRESSWTTSNLWGQGTQVTVSS , I see its pKd listed as 8.97

Looking up A4-072 (VHH) VHH: VQLQESGGGLAQPGGSLRLSCAASGSSFVINTMGWYRQAPGKQREFVATVTRGGSTNYGEFVKGRFTISRDNAKNTVYLQMNSLRPEDTAVYYCHVDELRQSSWTTSNLWGQGTQVTVSS , I see its pKd listed as 8.41

Looking up A4-064 (VHH) VHH: VQLQESGGGLVQSGGSLRLSCAASGRNFSLNTVGWYRQAPGKQRELVATVTSGGGTNYAGSVKGRFTISRDNAKNTVYLQMNSLRPEDTAVYYCHVDEVRESTWTTSNLWGQGTQVTVSS , I see its pKd listed as 7.12

Looking up A4-092 (VHH) VHH: VQLQESGGGLVQTGGSLRLSCLASGSIFSINTMGWYRQRAGKQRELVATVTRAGSTNYADSVKGRFTISRDNAKNTVYLQMNSLRPEDTAVYYCHVDEIRESSWTTSNLWGQGTQVTVSS , I see its pKd listed as 8.96

Looking up A4-089 (VHH) VHH: VQLQESGGGLVQPGGSLRLSCAASGSNFSINTMGWYRQAPGKQRELVATFTRAGNTNYADSVKGRFTISRDNGKNTVYLQMNSLRPEDTAVYYCHVDEVRDSSWTTSNLWGQGTQVTVSS , I see its pKd listed as 8.37

Looking up A4-088 (VHH) VHH: VQLQESGGGLVQTGGSLRLSCAASGSRFSLNTMGWYRQAPGKQRELVAAVTRGGNTNYGDFVKGRFTISRDNAKNTVYLQMNSLRPEDTAVYYCHVDELRESSWTTSNLWGQGTQVTVSS , I see its pKd listed as 5.62

Looking up A4-074 (VHH) VHH: VQLQESGGGLVQSGGSLRLSCAASGSMFSLNTMGWYRQAPGKQRELVATITRGGGTSYADSVKGRFTISRDNAKNTVYLQMNSLRPEDTAVYYCHVDELRQSSWTTSNLWGQGTQVTVSS , I see its pKd listed as 7.84

Origin of values: patent US20260193326A1
